# Plant response rating, Bermudagrass per record follows
- Test system: bermudagrass (Cynodon dactylon)
- PROCEDURE_TEXT: Test B pre-/postemergence plant response
- Format: in vivo
- MEASUREMENT_PARAMETERS: Preemergence, 125 g ai/ha; scale 0 to 100, 0 no effect, 100 complete control
PROPERTY_LABEL: Plant response rating, Bermudagrass

COMPOUND: COc1ccc(-n2c(-c3ccccc3)ncc(C(=O)C3=C(O)CCCC3=O)c2=O)cc1OC [Compound 218]
NUMERIC_RESULT: 100

COMPOUND: CCc1ccccc1-n1c(-c2ccccc2)ncc(C(=O)C2=C(O)CCCC2=O)c1=O [Compound 255]
NUMERIC_RESULT: 100

COMPOUND: CCCn1c(-c2cccs2)ncc(C(=O)C2=C(O)CCCC2=O)c1=O [Compound 77]
NUMERIC_RESULT: 100

COMPOUND: CCCCn1c(-c2cc(F)cc(F)c2)ncc(C(=O)C2=C(O)C3CCC(C3)C2=O)c1=O (stereo not drawn) [Compound 245]
NUMERIC_RESULT: 100

COMPOUND: CCCc1ncc(C(=O)C2=C(O)CCCC2=O)c(=O)n1CC1CCCO1 (stereo not drawn) [Compound 74]
NUMERIC_RESULT: 100

COMPOUND: CCCCc1ncc(C(=O)C2=C(O)CCCC2=O)c(=O)n1-c1ccc(C)cc1 [Compound 67]
NUMERIC_RESULT: 95

====

- System: large crabgrass (Digitaria sanguinalis)
- PROCEDURE_TEXT: Test A pre-/postemergence plant response
- Format: in vivo
- MEASUREMENT_PARAMETERS: Postemergence, 125 g ai/ha; visual injury, 0 to 100 scale (0 no effect, 100 complete control), approx. ten days
# Crabgrass, Large plant response rating per record follows
PROPERTY_LABEL: Crabgrass, Large plant response rating

SMILES_ENTRY: O=C1CCCC(O)=C1C(=O)c1cnc(-c2ccccc2)n(-c2cccc(Br)c2)c1=O
NUMERIC_RESULT: 60
//
SMILES_ENTRY: CCCCCCc1ncc(C(=O)C2=C(O)CCCC2=O)c(=O)n1-c1ccccc1
NUMERIC_RESULT: 40
//
SMILES_ENTRY: Cc1ccc(-n2c(-c3ccccc3)ncc(C(=O)C3=C(O)CCCC3=O)c2=O)cc1
NUMERIC_RESULT: 80

====

- Tested on: morningglory (Ipomoea spp.)
- PROCEDURE_TEXT: Test A pre-/postemergence plant response
- Format: in vivo
- MEASUREMENT_PARAMETERS: Postemergence, 125 g ai/ha; 0 to 100 scale where 0 is no effect and 100 is complete control
PROPERTY_LABEL: Plant response rating, Morningglory

SMILES_ENTRY: CCCn1c(-c2cc(C)cc(C)c2)ncc(C(=O)C2=C(O)CCCC2=O)c1=O
MEASURED_ON: morningglory (Ipomoea spp.)
PROPERTY_LABEL: Plant response rating, Morningglory
NUMERIC_RESULT: 100
--
SMILES_ENTRY: O=C1CCCC(O)=C1C(=O)c1cnc(-c2cc(F)c(F)c(F)c2)n(C2CCCCC2)c1=O
MEASURED_ON: morningglory (Ipomoea spp.)
PROPERTY_LABEL: Plant response rating, Morningglory
NUMERIC_RESULT: 100
--
SMILES_ENTRY: CCCn1c(-c2cccc(Br)c2)ncc(C(=O)C2=C(O)CCCC2=O)c1=O
MEASURED_ON: morningglory (Ipomoea spp.)
PROPERTY_LABEL: Plant response rating, Morningglory
NUMERIC_RESULT: 70
--
SMILES_ENTRY: Cc1ccc(-c2ncc(C(=O)C3=C(O)CCCC3=O)c(=O)n2-c2ccccc2)cc1
MEASURED_ON: morningglory (Ipomoea spp.)
PROPERTY_LABEL: Plant response rating, Morningglory
NUMERIC_RESULT: 100
--
SMILES_ENTRY: Cc1ccccc1-c1ncc(C(=O)C2=C(O)CCCC2=O)c(=O)n1-c1ccccc1
MEASURED_ON: morningglory (Ipomoea spp.)
PROPERTY_LABEL: Plant response rating, Morningglory
NUMERIC_RESULT: 90
--
SMILES_ENTRY: O=C1CCCC(O)=C1C(=O)c1cnc(-c2ccccc2)n(C2CCCC2)c1=O
MEASURED_ON: morningglory (Ipomoea spp.)
PROPERTY_LABEL: Plant response rating, Morningglory
NUMERIC_RESULT: 100
--
SMILES_ENTRY: CCCc1ncc(C(=O)C2=C(O)CCCC2=O)c(=O)n1-c1ccccc1C
MEASURED_ON: morningglory (Ipomoea spp.)
PROPERTY_LABEL: Plant response rating, Morningglory
NUMERIC_RESULT: 100
--
SMILES_ENTRY: O=C1CCCC(O)=C1C(=O)c1cnc(-c2cc(F)cc(F)c2)n(-c2ccccc2)c1=O
MEASURED_ON: morningglory (Ipomoea spp.)
PROPERTY_LABEL: Plant response rating, Morningglory
NUMERIC_RESULT: 60

// data source = patent US8952024B2
